Consider the following compounds; for each one, report its TGI.
- Test system: SF-539 CNS
- assay: NCI tumour cell line growth inhibition, 48 h
# value in µM; strip the unit string

Endpoint output: TGI of `CC(=O)O[C@H]1C(=O)[C@@]2(C)[C@H]([C@H](OC(=O)c3ccccc3)[C@]3(O)C[C@H](OC(=O)[C@H](O)[C@@H](NC(=O)c4ccccc4)c4ccc5ccccc5c4)C(C)=C1C3(C)C)[C@]1(OC(C)=O)CO[C@@H]1C[C@@H]2O` . Value?
0.152

Endpoint output: TGI of `C[C@@H](N)COc1ccc(-c2cnc3ccc(N[C@H](C)c4cccc(F)c4)nn23)cc1` . Value?
2.86

Endpoint output: TGI of `O=C(CCBr)N1CCN(C(=O)CCBr)CC1` . Value?
168

Endpoint output: TGI of `Cc1ccc([P+](Cc2ccccc2)(c2ccccc2)c2ccccc2)cc1` . Value?
50.9
